All figures here come from ChEMBL document CHEMBL3808337.

assay-overview: Plasma protein binding in Balb/C mouse at 5 mg/kg, iv or po after 24 hrs by ESI-LCMS/MS analysis
Assay type: ADME, organism-based
applied-conditions: read-out: PPB (converted)
readout-kind: fraction unbound at 24 h
Answers are plain numbers.

Query block: Which fraction unbound at 24 h value belongs to COc1cc(-c2cnn(C)c2)ccc1Nc1ncc2ccnc(N[C@@H](C)C(C)(C)C)c2n1 ?
Result block: 0.0002

---

assay-overview: Clearance in Sprague-Dawley rat blood at 5 mg/kg, iv or po after 24 hrs by ESI-LCMS/MS analysis
Type: ADME, organism-based
readout-kind: clearance
In your response, the unit should come after the numeric value.

Query block: Which clearance value belongs to COc1cc(-c2cnn(C)c2)ccc1Nc1ncc2ccnc(N[C@@H](C)C(C)(C)C)c2n1 ?
Result block: 24 mL/min/kg
